Each recorded value in this set is attributed to PubChem BioAssay (Tox21).

experiment: qHTS assay to identify small molecule antagonists of the estrogen related receptor (ERR) signaling pathway from Tox21 library - cell viability counter screen (AID 1224834); details: ERR reporter cells viability, CellTiter-Fluor, 17.5 h; series mostly up to 92.4 µM; also: nearly all actives have a fitted effect of over 30% in size; also: potency is read from the fitted curve at half-maximal effect
Inconclusive results are not listed. The source made the active and inactive calls. Calls follow the shape of the dose curve; as a rule, active = well fitted cell-killing curve with a large enough effect in the repeat runs; inconclusive = weak or mixed curves; inactive = flat fitted curve, though single readings scatter.
reported endpoint: Potency

               molecular_string  reported_endpoint      result_value
0      C[C@H]1CNCCc2ccc(Cl)cc21            Potency          inactive
1  C/C(=C\c1ccccc1)[N+](=O)[O-]            Potency  27.3 µM (active)
2          CN(C)c1ccc(N(C)C)cc1            Potency          inactive
